Assayed System: acetylcholine esterase (Mus musculus)
Construct: using a mouse brain homogenate as the acetylcholine esterase source; from tissue; host or cells: mouse brain homogenate
Sequence (P21836 32-614): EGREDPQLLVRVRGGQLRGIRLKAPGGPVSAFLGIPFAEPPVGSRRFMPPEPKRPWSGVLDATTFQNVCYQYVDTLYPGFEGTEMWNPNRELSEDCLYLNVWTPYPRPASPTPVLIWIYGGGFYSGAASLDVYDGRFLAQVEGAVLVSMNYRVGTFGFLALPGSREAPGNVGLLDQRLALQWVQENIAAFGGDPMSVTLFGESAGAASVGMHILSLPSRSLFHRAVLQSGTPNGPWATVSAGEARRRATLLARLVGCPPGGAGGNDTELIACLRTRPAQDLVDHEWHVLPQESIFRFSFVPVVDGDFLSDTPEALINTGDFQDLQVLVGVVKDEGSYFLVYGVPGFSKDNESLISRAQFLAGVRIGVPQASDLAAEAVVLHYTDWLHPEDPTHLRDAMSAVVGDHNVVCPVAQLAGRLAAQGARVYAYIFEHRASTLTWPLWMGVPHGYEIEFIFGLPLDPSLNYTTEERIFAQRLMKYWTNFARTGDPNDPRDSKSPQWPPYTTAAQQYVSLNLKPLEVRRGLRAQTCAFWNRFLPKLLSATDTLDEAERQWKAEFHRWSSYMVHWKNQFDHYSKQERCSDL
Assay Comment: biochemical
Test Settings: read-out: AChE inhibiting activity IC50
Counter-ions that a name gives are not always drawn.
Measured Endpoint: IC50 (nM)
Express your answer in nM, writing the number without its unit.

* COc1ccc2c(c1)CN(CCC1CCN(CC3OCCO3)CC1)C(=O)O2 [Example 5, hydrochloride] | 49.5
* O=C1CCCc2cccnc2N1CCC1CCN(Cc2ccccc2)CC1 [Example 20] | 69.1
* O=c1[nH]c2c([N+](=O)[O-])cccc2c(=O)n1CCC1CCN(CC2OCCO2)CC1 [Example 68] | 220
* O=C(c1ccccc1)C1CC(=O)N(CCC2CCN(Cc3ccccc3)CC2)C1 (centres unmarked) [Example 13, hydrochloride] | 20.3

Proceed to the following item.
Ask | GET /values?readout=IC50&item= COc1ccc2c(c1)CN(CCC1CCN(Cc3ccoc3)CC1)C(=O)O2 [Example 44]
Reply | 5.04
